Source of measurements: ChEMBL document CHEMBL1124029

assayOverview: Minimum cytotoxic concentration required to cause a microscopically detectable alteration of normal cell morphology
Assay type: functional
measuredProperty: MCC

The reported MCC of the molecule CC[N+](CC)(CC)CC.Cn1cc(NC(=O)c2cc(NC(=O)C(Cl)Cl)cn2C)cc1C(=O)NCCC(=N)N.O=S(=O)([O-])O was > 200 µg/mL

Short answer for Cl.Cn1cc(NC(=O)c2cc(NC(=O)C3CC3)cn2C)cc1C(=O)NCCC(=N)N : MCC was > 200 µg/mL

# MCC (molecule: Cl.Cn1cc(NC(=O)c2cc(NC(=O)CCCCl)cn2C)cc1C(=O)NCCC(=N)N ) is > 200 µg/mL

// Cl.Cl.Cn1cc(NC(=O)c2cc(NC(=O)c3cc(NC=O)cn3C)cn2C)cc1C(=O)NCCC(=N)N : MCC value = > 200 µg/mL

Note to self: MCC recorded for Cl.Cn1cc(NC(=O)c2cc(NC(=O)CF)cn2C)cc1C(=O)NCCC(=N)N was > 100 µg/mL

MCC in this record for Cl.Cn1cc(NC(=O)c2cc(NC(=O)C(Cl)(Cl)Cl)cn2C)cc1C(=O)NCCC(=N)N : > 200 µg/mL
